system: A549; assay: Cytotoxicity against human A549 cells assessed as inhibition of cell growth incubated for 72 hrs by MTS assay; assay type: functional, cell-based; conditions: A549, 72 h
Property Label: IC50 (µM)
Give the value in µM but do not write µM after it.

Looking up C=C(C)[C@@H]1CC[C@]2(C(=O)O)CC[C@]3(C)[C@H](CC[C@@H]4[C@@]5(C)CC=C(c6ccccc6O)C(C)(C)[C@@H]5CC[C@]43C)[C@@H]12 , I found its IC50 recorded as 41

In plain terms, C=C(C)[C@@H]1CC[C@]2(C(=O)O)CC[C@]3(C)[C@H](CC[C@@H]4[C@@]5(C)CC=C(c6ccccc6C(=O)OC)C(C)(C)[C@@H]5CC[C@]43C)[C@@H]12 has a documented IC50 of 26

---

assay: Efflux ratio of apparent permeability from basolateral to apical side over apical to basolateral side in dog MDCK-MDR1 cells incubated for 1 hr by high-throughput spectrometric analysis; format: ADME, cell-based, Canis lupus familiaris
Property Label: efflux ratio at 1 h
The answer should be written as a number, with no unit following it.

Documented efflux ratio at 1 h of C=C(C)[C@@H]1CC[C@]2(C(=O)O)CC[C@]3(C)[C@H](CC[C@@H]4[C@@]5(C)CC=C(c6ccc(O)cc6)C(C)(C)[C@@H]5CC[C@]43C)[C@@H]12 : 2.05

Looking up C=C(C)[C@@H]1CC[C@]2(C(=O)O)CC[C@]3(C)[C@H](CC[C@@H]4[C@@]5(C)CC=C(c6cccc(N)c6)C(C)(C)[C@@H]5CC[C@]43C)[C@@H]12 , I found its efflux ratio at 1 h recorded as 7.23

efflux ratio at 1 h in this record for C=C(C)[C@@H]1CC[C@]2(C(=O)O)CC[C@]3(C)[C@H](CC[C@@H]4[C@@]5(C)CC=C(c6cccc(O)c6)C(C)(C)[C@@H]5CC[C@]43C)[C@@H]12 : 1.29

---

tested on: CEM-DNR; test: Cytotoxicity against human CEM-DNR cells assessed as inhibition of cell growth incubated for 72 hrs by MTS assay; assay type: functional, cell-based
Please go through the items and note down their IC50.
Please state the figure in µM; there is no need to write the unit.

Just so you know, measured IC50 for C=C(C)[C@@H]1CC[C@]2(C(=O)OCc3ccccc3)CC[C@]3(C)[C@H](CC[C@@H]4[C@@]5(C)CC=C(OS(=O)(=O)C(F)(F)F)C(C)(C)[C@@H]5CC[C@]43C)[C@@H]12 came out at 22

# IC50 of C=C(C)[C@@H]1CC[C@]2(C(=O)O)CC[C@]3(C)[C@H](CC[C@@H]4[C@@]5(C)CC=C(c6ccccc6C(=O)OC)C(C)(C)[C@@H]5CC[C@]43C)[C@@H]12 = 27

// sample C=C(C)[C@@H]1CC[C@]2(C(=O)O)CC[C@]3(C)[C@H](CC[C@@H]4[C@@]5(C)CC=C(c6ccc(O)cc6)C(C)(C)[C@@H]5CC[C@]43C)[C@@H]12 , its IC50 was 3.3

---

assay: Chemical stability of the compound in PBS buffer assessed as compound remaining at pH 7.4 at 2 uM measured after 60 mins by RF-MS analysis; assay type: physicochemical; conditions: read-out: Stability
Assignment: determine reported remaining at 1 h, 2 µM for the given compounds.
Answer with a number only, understood to be in %.

# remaining at 1 h, 2 µM of C=C(C)[C@@H]1CC[C@]2(C(=O)O)CC[C@]3(C)[C@H](CC[C@@H]4[C@@]5(C)CC=C(c6cccc(O)c6)C(C)(C)[C@@H]5CC[C@]43C)[C@@H]12 = 102

Measured remaining at 1 h, 2 µM, C=C(C)[C@@H]1CC[C@]2(C(=O)O)CC[C@]3(C)[C@H](CC[C@@H]4[C@@]5(C)CC=C(c6cccc(N)c6)C(C)(C)[C@@H]5CC[C@]43C)[C@@H]12 : 91.8

Briefly, remaining at 1 h, 2 µM measured for C=C(C)[C@@H]1CC[C@]2(C(=O)O)CC[C@]3(C)[C@H](CC[C@@H]4[C@@]5(C)CC=C(c6ccc(O)cc6)C(C)(C)[C@@H]5CC[C@]43C)[C@@H]12 : 94

---

experiment: Chemical stability of the compound in PBS buffer assessed as compound remaining at pH 7.4 at 2 uM measured after 30 mins by RF-MS analysis; assay type: physicochemical; settings: read-out: Stability
Property Label: remaining at 0.5 h, 2 µM (%)
All answers are understood in %, so give the number only.

# remaining at 0.5 h, 2 µM of C=C(C)[C@@H]1CC[C@]2(C(=O)O)CC[C@]3(C)[C@H](CC[C@@H]4[C@@]5(C)CC=C(c6cccc(N)c6)C(C)(C)[C@@H]5CC[C@]43C)[C@@H]12 = 91.7

So for C=C(C)[C@@H]1CC[C@]2(C(=O)O)CC[C@]3(C)[C@H](CC[C@@H]4[C@@]5(C)CC=C(c6cccc(O)c6)C(C)(C)[C@@H]5CC[C@]43C)[C@@H]12 , the logged remaining at 0.5 h, 2 µM turned out to be 93.5

The reported value for C=C(C)[C@@H]1CC[C@]2(C(=O)O)CC[C@]3(C)[C@H](CC[C@@H]4[C@@]5(C)CC=C(c6ccc(O)cc6)C(C)(C)[C@@H]5CC[C@]43C)[C@@H]12 in terms of remaining at 0.5 h, 2 µM is 98.7

---

Exercise: state measured fraction unbound at 4 h, 10 µM for each of the compounds provided.
assay: Plasma protein binding in human assessed as fraction bound at 10 uM incubated for 4 hrs by rapid equilibrium dialysis based RF-MS analysis; format: ADME, cell-free; conditions: read-out: PPB (converted)
Lab note: jot down the number only; don't add units.

Input C=C(C)[C@@H]1CC[C@]2(C(=O)O)CC[C@]3(C)[C@H](CC[C@@H]4[C@@]5(C)CC=C(c6ccc(O)cc6)C(C)(C)[C@@H]5CC[C@]43C)[C@@H]12 . Output fraction unbound at 4 h, 10 µM: 0.242

For reference, reported fraction unbound at 4 h, 10 µM for C=C(C)[C@@H]1CC[C@]2(C(=O)O)CC[C@]3(C)[C@H](CC[C@@H]4[C@@]5(C)CC=C(c6cccc(N)c6)C(C)(C)[C@@H]5CC[C@]43C)[C@@H]12 stands at 0.502

# fraction unbound at 4 h, 10 µM of C=C(C)[C@@H]1CC[C@]2(C(=O)O)CC[C@]3(C)[C@H](CC[C@@H]4[C@@]5(C)CC=C(c6cccc(O)c6)C(C)(C)[C@@H]5CC[C@]43C)[C@@H]12 = 0.334

---

Field: recovery at 2 h. Provide a value for each of the compounds that follow.
test: Apparent permeability across apical to basolateral side in human Caco-2 cells assessed as drug recovery incubated for 2 hr by high-throughput spectrometric analysis; assay type: ADME, cell-based; settings: read-out: Drug recovery
Respond with the bare value in %.

Value of recovery at 2 h reported for the compound C=C(C)[C@@H]1CC[C@]2(C(=O)O)CC[C@]3(C)[C@H](CC[C@@H]4[C@@]5(C)CC=C(c6cccc(N)c6)C(C)(C)[C@@H]5CC[C@]43C)[C@@H]12 is 106

Short answer for C=C(C)[C@@H]1CC[C@]2(C(=O)O)CC[C@]3(C)[C@H](CC[C@@H]4[C@@]5(C)CC=C(c6ccc(O)cc6)C(C)(C)[C@@H]5CC[C@]43C)[C@@H]12 : recovery at 2 h was 65.2

Query C=C(C)[C@@H]1CC[C@]2(C(=O)O)CC[C@]3(C)[C@H](CC[C@@H]4[C@@]5(C)CC=C(c6cccc(O)c6)C(C)(C)[C@@H]5CC[C@]43C)[C@@H]12 yields recovery at 2 h of 97.5

---

assay: Cytotoxicity against human MRC5 cells assessed as inhibition of cell growth incubated for 72 hrs by MTS assay; format: toxicity, cell-based
Doc: threshold 30 µM (exclusive). Items with IC50 at 72 h beneath it return True; others return False.

Prompt line: Given C=C(C)[C@@H]1CC[C@]2(C(=O)O)CC[C@]3(C)[C@H](CC[C@@H]4[C@@]5(C)CC=C(c6ccccc6OC)C(C)(C)[C@@H]5CC[C@]43C)[C@@H]12 , is recorded IC50 at 72 h strictly lower than 30 µM?
Response line: True

Prompt line: Find out if reported IC50 at 72 h for C=C(C)[C@@H]1CC[C@]2(C(=O)O)CC[C@]3(C)[C@H](CC[C@@H]4[C@@]5(C)CC=C(c6ccc([N+](=O)[O-])cc6)C(C)(C)[C@@H]5CC[C@]43C)[C@@H]12 is less than 30 µM
Response line: False

Prompt line: Bench note: check whether C=C(C)[C@@H]1CC[C@]2(C(=O)O)CC[C@]3(C)[C@H](CC[C@@H]4[C@@]5(C)CC=C(c6cccc([N+](=O)[O-])c6)C(C)(C)[C@@H]5CC[C@]43C)[C@@H]12 shows IC50 at 72 h below 30 µM
Response line: False

Prompt line: Lab log: compare recorded IC50 at 72 h with 30 µM; is it strictly lower for C=C(C)[C@@H]1CC[C@]2(C(=O)O)CC[C@]3(C)[C@H](CC[C@@H]4[C@@]5(C)CC=C(c6cccc(C(=O)OC)c6)C(C)(C)[C@@H]5CC[C@]43C)[C@@H]12 ?
Response line: False

Prompt line: Please check: IC50 at 72 h for C=C(C)[C@@H]1CC[C@]2(C(=O)O)CC[C@]3(C)[C@H](CC[C@@H]4[C@@]5(C)CC=C(c6cccc(O)c6)C(C)(C)[C@@H]5CC[C@]43C)[C@@H]12 , strictly under 30 µM or not?
Response line: True

Prompt line: Consider the compound C=C(C)[C@@H]1CC[C@]2(C(=O)O)CC[C@]3(C)[C@H](CC[C@@H]4[C@@]5(C)CC=C(c6ccc(C(=O)OC)cc6)C(C)(C)[C@@H]5CC[C@]43C)[C@@H]12 . Is its IC50 at 72 h strictly less than 30 µM?
Response line: False

Prompt line: A record lists C=C(C)[C@@H]1CC[C@]2(C(=O)O)CC[C@]3(C)[C@H](CC[C@@H]4[C@@]5(C)CC=C(c6cccc(C(F)(F)F)c6)C(C)(C)[C@@H]5CC[C@]43C)[C@@H]12 . Is its IC50 at 72 h below 30 µM?
Response line: False

Prompt line: Dear colleague, could you confirm whether IC50 at 72 h of C=C(C)[C@@H]1CC[C@]2(C(=O)O)CC[C@]3(C)[C@H](CC[C@@H]4[C@@]5(C)CC=C(c6ccccc6O)C(C)(C)[C@@H]5CC[C@]43C)[C@@H]12 falls below 30 µM? Thanks.
Response line: False

Prompt line: Dear colleague, could you confirm whether IC50 at 72 h of C=C(C)[C@@H]1CC[C@]2(C(=O)OCc3ccccc3)CC[C@]3(C)[C@H](CC[C@@H]4[C@@]5(C)CC=C(OS(=O)(=O)C(F)(F)F)C(C)(C)[C@@H]5CC[C@]43C)[C@@H]12 falls below 30 µM? Thanks.
Response line: True

Prompt line: Confirm or reject: IC50 at 72 h of C=C(C)[C@@H]1CC[C@]2(C(=O)O)CC[C@]3(C)[C@H](CC[C@@H]4[C@@]5(C)CC=C(c6cccc(OC)c6)C(C)(C)[C@@H]5CC[C@]43C)[C@@H]12 lies strictly below 30 µM
Response line: False

Prompt line: State whether 30 µM exceeds IC50 at 72 h recorded for C=C(C)[C@@H]1CC[C@]2(C(=O)O)CC[C@]3(C)[C@H](CC[C@@H]4[C@@]5(C)CC=C(c6cccc(N)c6)C(C)(C)[C@@H]5CC[C@]43C)[C@@H]12 .
Response line: False

Prompt line: Field: below-cutoff. Rule: recorded IC50 at 72 h strictly less than 30 µM. Subject: C=C(C)[C@@H]1CC[C@]2(C(=O)O)CC[C@]3(C)[C@H](CC[C@@H]4[C@@]5(C)CC=C(c6ccc(OC)cc6)C(C)(C)[C@@H]5CC[C@]43C)[C@@H]12
Response line: False

Prompt line: Say whether its IC50 at 72 h is strictly beneath 30 µM. Entry: C=C(C)[C@@H]1CC[C@]2(C(=O)O)CC[C@]3(C)[C@H](CC[C@@H]4[C@@]5(C)CC=C(c6ccccc6N)C(C)(C)[C@@H]5CC[C@]43C)[C@@H]12
Response line: False

Prompt line: I wonder whether C=C(C)[C@@H]1CC[C@]2(C(=O)O)CC[C@]3(C)[C@H](CC[C@@H]4[C@@]5(C)CC=C(c6ccc(N)cc6)C(C)(C)[C@@H]5CC[C@]43C)[C@@H]12 has IC50 at 72 h below 30 µM. Can you tell?
Response line: False

Prompt line: Is IC50 at 72 h strictly under 30 µM for the entry C=C(C)[C@@H]1CC[C@]2(C(=O)O)CC[C@]3(C)[C@H](CC[C@@H]4[C@@]5(C)CC=C(c6ccc(O)cc6)C(C)(C)[C@@H]5CC[C@]43C)[C@@H]12 ?
Response line: True

Prompt line: I'd appreciate it if you could check whether C=C(C)[C@@H]1CC[C@]2(C(=O)O)CC[C@]3(C)[C@H](CC[C@@H]4[C@@]5(C)CC=C(c6ccccc6C(=O)OC)C(C)(C)[C@@H]5CC[C@]43C)[C@@H]12 has IC50 at 72 h smaller than 30 µM.
Response line: True
